Reference source: patent US8183405B2

Experiment: Solubility (Table 1)
Format: physicochemical
Conditions: solvents in which the compound is insoluble
readout.label: Solubility Insoluble

The cases that follow already have their Solubility Insoluble on record.
# molecule, Solubility Insoluble
rows = [
    ("C=CCc1ccc(Oc2cc(CC=C)cc(O)c2OC)cc1 [Example 2]", "Hexane, Water"),
    ("C=CCc1ccc(Oc2cc(CC=C)cc(OC(=O)COC)c2OC(=O)COC)cc1 [Example 4]", "Hexane, Water"),
    ("CCCc1ccc(Oc2cc(CCC)cc(OC(C)=O)c2OC(C)=O)cc1 [Example 6]", "Water"),
    ("C=CCc1ccc(Oc2cc(CC=C)cc(OC(C)=O)c2OC(C)=O)cc1 [Example 3]", "Hexane, Water"),
]

Now consider a different molecule.
stdin: I am curious: what Solubility Insoluble value has been reported for C/C=C/c1ccc(Oc2cc(/C=C/C)cc(OC(=O)COC)c2OC(=O)COC)cc1 [Example 10] ?
stdout: Water
